- TESTED ON: T1, TNFR1 (Homo sapiens, UniProt P19438)
- T1 chain: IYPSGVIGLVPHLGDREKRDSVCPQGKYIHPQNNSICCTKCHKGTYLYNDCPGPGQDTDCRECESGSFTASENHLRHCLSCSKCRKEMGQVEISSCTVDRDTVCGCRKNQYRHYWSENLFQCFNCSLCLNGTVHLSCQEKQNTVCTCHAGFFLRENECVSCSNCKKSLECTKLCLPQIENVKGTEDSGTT
- PROCEDURE DETAILS: yeast display SC50
Tag: True if measured apparent Kd (screen) is not below 2 nM, False if it is.

Please tell me: is the binder E61V (designed binder) SMEEEVEKAAKEYEKKKKEAIEKHLEKLKAKDKEAAERFLKELEEAAKEYAKDEAKTMSEVEAKRRAKKYKEKVLLSELSEEEQKEIKEAEEKLVRTILKYVEEAAK at or over 2 nM in terms of apparent Kd (screen)?
False

Please tell me: is the binder E91I (designed binder) SMEEEVEKAAKEYEKKKKEAIEKHLEKLKAKDKEAAERFLKELEEAAKEYAKDEAKTMSEEEAKRRAKKYKEKVLLSELSEEEQKEIKEAIEKLVRTILKYVEEAAK at or over 2 nM in terms of apparent Kd (screen)?
True

Please tell me: is the binder V95Y (designed binder) SMEEEVEKAAKEYEKKKKEAIEKHLEKLKAKDKEAAERFLKELEEAAKEYAKDEAKTMSEEEAKRRAKKYKEKVLLSELSEEEQKEIKEAEEKLYRTILKYVEEAAK at or over 2 nM in terms of apparent Kd (screen)?
True

Please tell me: is the binder K88T (designed binder) SMEEEVEKAAKEYEKKKKEAIEKHLEKLKAKDKEAAERFLKELEEAAKEYAKDEAKTMSEEEAKRRAKKYKEKVLLSELSEEEQKEITEAEEKLVRTILKYVEEAAK at or over 2 nM in terms of apparent Kd (screen)?
False

Please tell me: is the binder E83M (designed binder) SMEEEVEKAAKEYEKKKKEAIEKHLEKLKAKDKEAAERFLKELEEAAKEYAKDEAKTMSEEEAKRRAKKYKEKVLLSELSEEMQKEIKEAEEKLVRTILKYVEEAAK at or over 2 nM in terms of apparent Kd (screen)?
False

Please tell me: is the binder E19Y (designed binder) SMEEEVEKAAKEYEKKKKYAIEKHLEKLKAKDKEAAERFLKELEEAAKEYAKDEAKTMSEEEAKRRAKKYKEKVLLSELSEEEQKEIKEAEEKLVRTILKYVEEAAK at or over 2 nM in terms of apparent Kd (screen)?
False

Please tell me: is the binder E82N (designed binder) SMEEEVEKAAKEYEKKKKEAIEKHLEKLKAKDKEAAERFLKELEEAAKEYAKDEAKTMSEEEAKRRAKKYKEKVLLSELSENEQKEIKEAEEKLVRTILKYVEEAAK at or over 2 nM in terms of apparent Kd (screen)?
False

Please tell me: is the binder A35C (designed binder) SMEEEVEKAAKEYEKKKKEAIEKHLEKLKAKDKECAERFLKELEEAAKEYAKDEAKTMSEEEAKRRAKKYKEKVLLSELSEEEQKEIKEAEEKLVRTILKYVEEAAK at or over 2 nM in terms of apparent Kd (screen)?
False
